system.under.test: CYP1A2 (Homo sapiens)
Construct: Pooled human microsomes and selective CYP probe substrates were used; from tissue; host or cells: pooled human liver microsomes
Sequence (P05177 whole entry): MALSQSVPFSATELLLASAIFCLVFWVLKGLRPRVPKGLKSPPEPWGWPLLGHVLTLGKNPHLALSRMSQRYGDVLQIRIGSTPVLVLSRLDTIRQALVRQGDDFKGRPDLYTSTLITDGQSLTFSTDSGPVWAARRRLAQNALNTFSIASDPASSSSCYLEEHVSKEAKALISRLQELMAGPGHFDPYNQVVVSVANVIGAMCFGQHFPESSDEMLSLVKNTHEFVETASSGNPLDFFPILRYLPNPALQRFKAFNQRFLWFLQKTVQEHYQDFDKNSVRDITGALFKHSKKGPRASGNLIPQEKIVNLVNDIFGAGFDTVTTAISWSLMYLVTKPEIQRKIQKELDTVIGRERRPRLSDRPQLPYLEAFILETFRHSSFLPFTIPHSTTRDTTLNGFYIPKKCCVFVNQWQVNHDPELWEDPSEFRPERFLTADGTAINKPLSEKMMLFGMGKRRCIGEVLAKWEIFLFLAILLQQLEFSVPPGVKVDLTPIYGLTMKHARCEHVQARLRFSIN
protocol: Time-dependent inhibition of CYP1A2 in human liver microsomes
Type: in vitro ADME
setup.conditions: CYP1A2, 25 μM, fold change
quantity.measured: (% Activity NADPH T0)/(% Activity NADPH T30)
Please reply with the value in numeric form only.

Provide (% Activity NADPH T0)/(% Activity NADPH T30), tested on CYP1A2 (Homo sapiens), for C[C@H]1CC[C@H](N2CC(=O)N(Cc3ccc(F)c(F)c3)C3(CN(C=O)C3)C2=O)CC1 [Compound 4] .
1.1

Provide (% Activity NADPH T0)/(% Activity NADPH T30), tested on CYP1A2 (Homo sapiens), for CC(C)N1CC(=O)N(Cc2ccc(C(F)(F)F)cc2)C2(CN(c3cccnn3)C2)C1=O [Compound 13] .
0.9

Provide (% Activity NADPH T0)/(% Activity NADPH T30), tested on CYP1A2 (Homo sapiens), for Cc1cc(CN2C(=O)CN([C@H]3CC[C@H](C)CC3)C(=O)C23CN(C(N)=O)C3)ccc1F [Compound 6] .
1.1

Provide (% Activity NADPH T0)/(% Activity NADPH T30), tested on CYP1A2 (Homo sapiens), for C[C@H]1CC[C@H](N2CC(=O)N(Cc3ccc(Cl)cc3)C3(CN(C(N)=O)C3)C2=O)CC1 [Compound 18] .
0.9

Provide (% Activity NADPH T0)/(% Activity NADPH T30), tested on CYP1A2 (Homo sapiens), for CC(C)N1CC(=O)N(Cc2ccc(Cl)c(F)c2)C2(CN(c3cccnn3)C2)C1=O [Compound 8] .
0.9

Provide (% Activity NADPH T0)/(% Activity NADPH T30), tested on CYP1A2 (Homo sapiens), for C[C@H]1CC[C@H](N2CC(=O)N(Cc3ccc(F)c(F)c3)C3(CN(C(N)=O)C3)C2=O)CC1 [Compound 5] .
1.0

Provide (% Activity NADPH T0)/(% Activity NADPH T30), tested on CYP1A2 (Homo sapiens), for C[C@H]1CC[C@H](N2CC(=O)N(Cc3ccc(F)c(Cl)c3)C3(CN(C(N)=O)C3)C2=O)CC1 [Compound 7] .
0.9
